test: Pharmacokinetic evaluation in Balb/c mice; format: in vivo; details: 1mg/kg, PO
Flag rule - Vdss less than 0.4 L/kg flags met; the remaining entries get not met.

In [3]: df
Out[3]:
                                   compound  label_value
0  CNC(=O)c1ccc(N2CCN(CC3Cc4[nH]c(=O)c(C)cc4CO3)CC2)c(Cl)n1 (centres unmarked)      not met
1  CCc1nc2c([nH]c1=O)C[C@@H](CN1CC=C(c3ccc(C(=O)NC)nc3F)CC1)CC2      not met
2  CNC(=O)c1ccc(C2=CCN(CC3Cc4[nH]c(=O)c(C5CC5)cc4CO3)CC2)c(F)n1 (centres unmarked)          met
3  CNC(=O)c1ccc(N2CCN(C[C@H]3CCc4nc(C)c(=O)[nH]c4C3)CC2)c(F)n1      not met

Pending compound:
Prompt: Check if Vdss falls below 0.4 L/kg for CCc1cc2c([nH]c1=O)CC(CN1CCN(c3ccc(C(=O)NC)nc3F)CC1)OC2 (centres unmarked) .
Completion: met

###

target: PARP-7 (Homo sapiens, UniProt Q7Z3E1)
Sequence (Q7Z3E1 whole entry): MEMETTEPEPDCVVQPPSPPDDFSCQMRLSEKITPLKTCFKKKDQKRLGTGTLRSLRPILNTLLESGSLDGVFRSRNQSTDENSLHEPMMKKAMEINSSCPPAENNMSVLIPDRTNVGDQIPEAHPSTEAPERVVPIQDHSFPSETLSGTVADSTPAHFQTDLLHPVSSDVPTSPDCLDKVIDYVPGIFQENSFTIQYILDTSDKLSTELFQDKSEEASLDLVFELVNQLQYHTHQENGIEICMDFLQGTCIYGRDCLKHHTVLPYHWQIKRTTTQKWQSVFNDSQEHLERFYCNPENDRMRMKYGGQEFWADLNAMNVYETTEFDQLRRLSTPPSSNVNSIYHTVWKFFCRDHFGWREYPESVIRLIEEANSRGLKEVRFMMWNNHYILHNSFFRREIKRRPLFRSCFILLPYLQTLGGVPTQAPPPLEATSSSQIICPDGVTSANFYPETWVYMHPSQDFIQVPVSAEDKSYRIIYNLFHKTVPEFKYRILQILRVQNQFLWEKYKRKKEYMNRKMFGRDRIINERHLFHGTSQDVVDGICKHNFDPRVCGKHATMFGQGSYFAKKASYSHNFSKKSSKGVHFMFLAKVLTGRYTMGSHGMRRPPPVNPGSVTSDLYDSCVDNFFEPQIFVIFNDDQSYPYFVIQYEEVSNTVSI
Quantity: pIC50
Recall that pIC50 is obtained by taking minus log10 of the concentration measured in molar.

Prompt: Query pIC50 on PARP-7 (Homo sapiens, UniProt Q7Z3E1) for CNC(=O)c1ccc(N2CCN(C[C@H]3CCc4nc(C)c(=O)[nH]c4C3)CC2)c(F)n1
Completion: 5.22

###

biological target: PARP1 (Homo sapiens, UniProt P09874)
Sequence (P09874 whole entry): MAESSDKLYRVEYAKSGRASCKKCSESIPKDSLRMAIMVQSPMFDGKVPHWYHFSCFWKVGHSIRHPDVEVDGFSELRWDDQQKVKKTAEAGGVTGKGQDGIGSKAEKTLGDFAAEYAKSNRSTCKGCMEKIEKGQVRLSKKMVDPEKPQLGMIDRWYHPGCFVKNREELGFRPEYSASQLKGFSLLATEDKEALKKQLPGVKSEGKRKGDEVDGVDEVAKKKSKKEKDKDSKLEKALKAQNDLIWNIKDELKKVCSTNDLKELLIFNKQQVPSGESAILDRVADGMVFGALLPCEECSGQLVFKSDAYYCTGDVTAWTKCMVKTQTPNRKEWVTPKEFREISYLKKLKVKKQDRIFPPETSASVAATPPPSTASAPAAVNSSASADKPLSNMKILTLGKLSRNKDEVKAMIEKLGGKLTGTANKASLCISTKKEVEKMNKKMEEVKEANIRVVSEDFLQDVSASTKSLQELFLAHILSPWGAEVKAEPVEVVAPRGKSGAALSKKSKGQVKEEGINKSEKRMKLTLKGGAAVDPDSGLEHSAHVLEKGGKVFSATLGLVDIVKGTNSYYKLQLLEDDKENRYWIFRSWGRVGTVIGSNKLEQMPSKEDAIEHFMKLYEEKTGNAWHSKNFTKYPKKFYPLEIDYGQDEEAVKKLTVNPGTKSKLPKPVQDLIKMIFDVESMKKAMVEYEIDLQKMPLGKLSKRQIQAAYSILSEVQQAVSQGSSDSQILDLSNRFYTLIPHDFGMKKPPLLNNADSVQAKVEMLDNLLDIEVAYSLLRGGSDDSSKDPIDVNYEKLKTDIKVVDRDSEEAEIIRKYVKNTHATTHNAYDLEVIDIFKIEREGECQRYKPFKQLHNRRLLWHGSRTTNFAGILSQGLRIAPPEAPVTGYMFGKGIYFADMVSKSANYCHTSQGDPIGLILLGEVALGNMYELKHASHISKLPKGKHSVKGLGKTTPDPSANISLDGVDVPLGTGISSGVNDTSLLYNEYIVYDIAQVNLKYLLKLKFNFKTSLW
Entries and their IC50 values follow.

Worked cases, IC50 given:
                                   molecule                     target_under_test  quantity    data_value
0  C=Cc1cc2c([nH]c1=O)CC(CN1CCN(c3ccc(C(=O)NC)nc3F)CC1)OC2 (centres unmarked)  PARP1 (Homo sapiens, UniProt P09874)      IC50       ≤ 50 nM
1  CNC(=O)c1ccc(C2=CCN(CC3Cc4[nH]c(=O)c(C5CC5)cc4CO3)CC2)c(Cl)n1 (centres unmarked)  PARP1 (Homo sapiens, UniProt P09874)      IC50  50 to 500 nM

Prompt: Look up IC50 for this molecule: CCc1cc2c([nH]c1=O)CC(CN1CC=C(c3ccc(C(=O)NC4CC4)nc3F)CC1)CC2 (centres unmarked)
Completion: ≤ 50 nM

Prompt: Quick one: Cc1cc2c([nH]c1=O)CC(CN1CCN(c3ccc(C(=O)NC4CC4)nc3Cl)CC1)OC2 (centres unmarked)
Completion: ≤ 50 nM

###

experiment: Cerebrospinal fluid and plasma distribution in vivo; details: rat, plasma; 2h, male rats, intravenous 5 mg/kg, n = 1; read-out: Plasma
# concentration at 2 h values compiled below
Value and unit, in that order.

>>> print(df.to_string())
                                   compound   data_value
0  CNC(=O)c1ccc(N2CCN(CC3Cc4[nH]c(=O)c(C(F)F)cc4CO3)CC2)c(F)n1 (stereo not drawn) [Example 43]   7.69 µg/mL
1  [2H]C([2H])([2H])NC(=O)c1ccc(N2CCN(C[C@H]3CCc4nc(C)c(=O)[nH]c4C3)CC2)c(F)n1 [Example 82]  0.077 µg/mL
2  CNC(=O)c1ccc(N2CCN(C[C@H]3CCc4nc(C)c(=O)[nH]c4C3)CC2)c(C)n1 [Example 47]  0.043 µg/mL
3  CNC(=O)c1ccc(N2CCN(CC3Cc4[nH]c(=O)c(C)cc4CO3)CC2)c(Cl)n1 (stereo not drawn) [Example 74]   5.56 µg/mL

Prompt: Tell me the measured concentration at 2 h of CNC(=O)c1ccc(N2CCN(CC3Cc4[nH]c(=O)c(C)cc4CO3)CC2)c(F)n1 (stereo not drawn) [Example 39] , please.
Completion: 4.89 µg/mL

Prompt: Would you kindly repeat that for [2H]C([2H])([C@H]1CCc2nc(C)c(=O)[nH]c2C1)N1CCN(c2ccc(C(=O)NC)nc2F)CC1 [Example 83] ?
Completion: 0.028 µg/mL

Prompt: Continue with CNC(=O)c1ccc(C2=CCN(CC3Cc4[nH]c(=O)c(C5CC5)cc4CO3)CC2)c(F)n1 (stereo not drawn) [Example 51]
Completion: 21.7 µg/mL

Prompt: Can you handle CNC(=O)c1ccc(N2CCN(CC3Cc4[nH]c(=O)c(Cl)cc4CO3)CC2)c(F)n1 (stereo not drawn) [Example 64] next?
Completion: 0.503 µg/mL

Prompt: Let us now turn to CNC(=O)c1ccc(N2CCN(CC3COc4cc(C)c(=O)[nH]c4C3)CC2)c(F)n1 (stereo not drawn) [Example 101]
Completion: 0.592 µg/mL
